Here the recorded MIC is given for each entry.
# Test system: Acinetobacter baumannii
# test-protocol: Synergistic antibacterial activity against Acinetobacter baumannii PR440 producing OXA-23/24/40 assessed as cefepime MIC at 4 ug/ml by broth microdilution method
# Type: functional
# measurement-parameters: dose 4 µg/ml
Your answer is read as µg/mL, so omit the unit and give the number.

NC(=O)[C@@H]1CC[C@@H]2CN1C(=O)N2OS(=O)(=O)[O-].[Na+] [AVIBACTAM SODIUM]    16
O=C(NNC(=O)[C@@H]1CC[C@@H]2CN1C(=O)N2OS(=O)(=O)O)[C@@H]1CCCNC1    16

QUERY: # value lookup — system Acinetobacter baumannii, readout MIC, item N#C[C@@H]1CC[C@@H]2CN1C(=O)N2OS(=O)(=O)[O-].[Na+]
RESULT: 16
